Study target: one or more of HDAC-4, HDAC-5, HDAC-6, HDAC-7, HDAC-8, HDAC-9, HDAC-10 and HDAC-11
Assay details: Inhibition of histone deacetylase enzymatic activity (summary statement over isoforms)
Condition: Table 3, selected examples; HDAC isoform not given
pIC50: −log10 of the molar value.

Compound | pIC50
O=C(NO)C(c1ccccc1)c1cccc(-c2ccc(Cl)cc2)c1 (stereo not drawn) [Compound 2-103] | > 6.00
O=C(NO)C(c1ccccc1)c1cccc(OCC2CC2)c1 (stereo not drawn) [Compound 3-25] | 4.82 to 6.00
O=C(NO)C(c1ccccc1)c1ccc(-c2ncccc2F)cc1 (stereo not drawn) [Compound 5-74] | > 6.00
O=C(NO)C(c1ccccc1)N1CCN(c2ncc(-c3ccccc3)cn2)CC1 (stereo not drawn) [Compound 5-11] | > 6.00
CC(COc1cccc(C(C(=O)NO)c2ccccc2)c1)CN(C)C (stereo not drawn) [Compound 3-17] | > 6.00
Cc1cc(C)cc(COc2cccc(C(C(=O)NO)c3ccccc3)c2)c1 (stereo not drawn) [Compound 3-35] | > 6.00
CC(C)(C)c1ccc(OC(C(=O)NO)c2ccccc2)cc1 (stereo not drawn) [Compound 7-37] | 4.82 to 6.00
CC(=O)ONC(=O)C(c1ccccc1)c1ccc(N2CCOCC2)cc1 (stereo not drawn) [Compound 5-117] | 4.82 to 6.00
O=C(NO)C(c1ccccc1)N1CCC(Cc2ccc(F)cc2)CC1 (stereo not drawn) [Compound 1-30] | > 6.00

---

# pIC50 listing for each entry below
Study target: one or more of HDAC-4, HDAC-5, HDAC-6, HDAC-7, HDAC-8, HDAC-9, HDAC-10 and HDAC-11
Assay details: Inhibition of histone deacetylase enzymatic activity (summary statement over isoforms)
Condition: Table 3, selected examples; HDAC isoform not given
pIC50: −log10 of the molar value.
Observed property: pIC50

Compound | Study target | Reported
O=C(NO)C(c1ccccc1)N1CCN(S(=O)(=O)Cc2ccccc2)CC1 (stereo not shown) | one or more of HDAC-4, HDAC-5, HDAC-6, HDAC-7, HDAC-8, HDAC-9, HDAC-10 and HDAC-11 | 4.82 to 6.00
Cc1cc(C)nc(N2CCN(C(C(=O)NO)c3ccccc3)CC2)n1 (stereo not shown) | one or more of HDAC-4, HDAC-5, HDAC-6, HDAC-7, HDAC-8, HDAC-9, HDAC-10 and HDAC-11 | > 6.00
O=C(NO)C(c1ccccc1)c1ccc(N2CCC(Cc3ccccc3)CC2)cc1 (stereo not shown) | one or more of HDAC-4, HDAC-5, HDAC-6, HDAC-7, HDAC-8, HDAC-9, HDAC-10 and HDAC-11 | > 6.00
O=C(NO)C(c1ccccc1)N1CCC(c2nc3ccccc3o2)CC1 (stereo not shown) | one or more of HDAC-4, HDAC-5, HDAC-6, HDAC-7, HDAC-8, HDAC-9, HDAC-10 and HDAC-11 | > 6.00
O=C(NO)C(Sc1nccc(-c2cccs2)n1)c1ccccc1 (stereo not shown) | one or more of HDAC-4, HDAC-5, HDAC-6, HDAC-7, HDAC-8, HDAC-9, HDAC-10 and HDAC-11 | 4.82 to 6.00
O=C(Nc1ccc(C(C(=O)NO)c2ccccc2)cc1)C1CCCCC1 (stereo not shown) | one or more of HDAC-4, HDAC-5, HDAC-6, HDAC-7, HDAC-8, HDAC-9, HDAC-10 and HDAC-11 | > 6.00
O=C(NO)C(c1ccccc1)c1ccc(N2CCCCC2)cc1 (stereo not shown) | one or more of HDAC-4, HDAC-5, HDAC-6, HDAC-7, HDAC-8, HDAC-9, HDAC-10 and HDAC-11 | > 6.00
O=C(NO)C(Sc1ccc(C(F)(F)F)cn1)c1ccccc1 (stereo not shown) | one or more of HDAC-4, HDAC-5, HDAC-6, HDAC-7, HDAC-8, HDAC-9, HDAC-10 and HDAC-11 | 4.82 to 6.00
O=C(NO)C(c1ccccc1)N1CCN(c2ccc(C(F)(F)F)cn2)CC1 (stereo not shown) | one or more of HDAC-4, HDAC-5, HDAC-6, HDAC-7, HDAC-8, HDAC-9, HDAC-10 and HDAC-11 | > 6.00
Cc1ccccc1NC(=O)N1CCN(C(C(=O)NO)c2ccccc2)CC1 (stereo not shown) | one or more of HDAC-4, HDAC-5, HDAC-6, HDAC-7, HDAC-8, HDAC-9, HDAC-10 and HDAC-11 | 4.82 to 6.00
O=C(NO)C(c1ccccc1)c1ccc(-c2ccc(N3CCOCC3)cc2)cc1 (stereo not shown) | one or more of HDAC-4, HDAC-5, HDAC-6, HDAC-7, HDAC-8, HDAC-9, HDAC-10 and HDAC-11 | > 6.00
O=C(NO)C(Oc1cccc2ccccc12)c1ccccc1 (stereo not shown) | one or more of HDAC-4, HDAC-5, HDAC-6, HDAC-7, HDAC-8, HDAC-9, HDAC-10 and HDAC-11 | > 6.00
O=C(NO)C(c1ccccc1)c1ccc(N2CCC2)cc1 (stereo not shown) | one or more of HDAC-4, HDAC-5, HDAC-6, HDAC-7, HDAC-8, HDAC-9, HDAC-10 and HDAC-11 | > 6.00
O=C(NO)C(c1ccc(N2CCOCC2)cc1)c1cccc(F)c1F (stereo not shown) | one or more of HDAC-4, HDAC-5, HDAC-6, HDAC-7, HDAC-8, HDAC-9, HDAC-10 and HDAC-11 | > 6.00
O=C(NO)C(c1ccc(N2CCOCC2)cc1)c1ccsc1 (stereo not shown) | one or more of HDAC-4, HDAC-5, HDAC-6, HDAC-7, HDAC-8, HDAC-9, HDAC-10 and HDAC-11 | > 6.00
CN(C)C(=O)c1ccc(-c2ccc(C(C(=O)NO)c3ccccc3)cc2)cc1 (stereo not shown) | one or more of HDAC-4, HDAC-5, HDAC-6, HDAC-7, HDAC-8, HDAC-9, HDAC-10 and HDAC-11 | > 6.00
O=C(NO)C(c1ccccc1)c1ccc(-c2ccc(Cl)cc2)cc1 (stereo not shown) | one or more of HDAC-4, HDAC-5, HDAC-6, HDAC-7, HDAC-8, HDAC-9, HDAC-10 and HDAC-11 | > 6.00
O=C(NO)C(c1ccccc1)c1ccc(OC2CCN(CC3CC3)CC2)cc1 (stereo not shown) | one or more of HDAC-4, HDAC-5, HDAC-6, HDAC-7, HDAC-8, HDAC-9, HDAC-10 and HDAC-11 | > 6.00
CCSc1ccc(-c2cccc(C(C(=O)NO)c3ccccc3)c2)cc1 (stereo not shown) | one or more of HDAC-4, HDAC-5, HDAC-6, HDAC-7, HDAC-8, HDAC-9, HDAC-10 and HDAC-11 | > 6.00
CCCC(=O)ONC(=O)C(c1ccccc1)c1ccc(N2CCOCC2)cc1 (stereo not shown) | one or more of HDAC-4, HDAC-5, HDAC-6, HDAC-7, HDAC-8, HDAC-9, HDAC-10 and HDAC-11 | 4.82 to 6.00
O=C(NO)C(c1ccc(N2CCOCC2)cc1)c1cccc(C(F)(F)F)c1 (stereo not shown) | one or more of HDAC-4, HDAC-5, HDAC-6, HDAC-7, HDAC-8, HDAC-9, HDAC-10 and HDAC-11 | 4.82 to 6.00
O=C(NO)C(c1ccccc1)N1CC=C(c2c[nH]c3ccccc23)CC1 (stereo not shown) | one or more of HDAC-4, HDAC-5, HDAC-6, HDAC-7, HDAC-8, HDAC-9, HDAC-10 and HDAC-11 | > 6.00
CN(C)c1ccc(-c2ccc(C(C(=O)NO)c3ccccc3)cc2)cc1 (stereo not shown) | one or more of HDAC-4, HDAC-5, HDAC-6, HDAC-7, HDAC-8, HDAC-9, HDAC-10 and HDAC-11 | > 6.00
COc1ccc(C(C(=O)NO)c2ccccc2)cc1 (stereo not shown) | one or more of HDAC-4, HDAC-5, HDAC-6, HDAC-7, HDAC-8, HDAC-9, HDAC-10 and HDAC-11 | > 6.00
O=C(NO)C(c1ccccc1)c1cccc(C#Cc2cccnc2)c1 (stereo not shown) | one or more of HDAC-4, HDAC-5, HDAC-6, HDAC-7, HDAC-8, HDAC-9, HDAC-10 and HDAC-11 | > 6.00
O=C(NO)C(c1ccccc1)c1ccc(OCc2ccc(F)cc2)cc1 (stereo not shown) | one or more of HDAC-4, HDAC-5, HDAC-6, HDAC-7, HDAC-8, HDAC-9, HDAC-10 and HDAC-11 | > 6.00
O=C(Nc1cccc(C(C(=O)NO)c2ccccc2)c1)c1ccc(F)cc1 (stereo not shown) | one or more of HDAC-4, HDAC-5, HDAC-6, HDAC-7, HDAC-8, HDAC-9, HDAC-10 and HDAC-11 | > 6.00
O=C(NO)C(c1ccccc1)n1cc(-c2ccccc2)nn1 (stereo not shown) | one or more of HDAC-4, HDAC-5, HDAC-6, HDAC-7, HDAC-8, HDAC-9, HDAC-10 and HDAC-11 | > 6.00
COc1ccc(-c2ccnc(SC(C(=O)NO)c3ccccc3)n2)cc1 (stereo not shown) | one or more of HDAC-4, HDAC-5, HDAC-6, HDAC-7, HDAC-8, HDAC-9, HDAC-10 and HDAC-11 | 4.82 to 6.00
O=C(CCC1CCCCC1)Nc1cccc(C(C(=O)NO)c2ccccc2)c1 (stereo not shown) | one or more of HDAC-4, HDAC-5, HDAC-6, HDAC-7, HDAC-8, HDAC-9, HDAC-10 and HDAC-11 | > 6.00
O=C(NO)C(c1ccc(N2CCOCC2)cc1)c1ccccc1O (stereo not shown) | one or more of HDAC-4, HDAC-5, HDAC-6, HDAC-7, HDAC-8, HDAC-9, HDAC-10 and HDAC-11 | 4.82 to 6.00
COc1cccc(COc2ccc(C(C(=O)NO)c3ccccc3)cc2)c1 (stereo not shown) | one or more of HDAC-4, HDAC-5, HDAC-6, HDAC-7, HDAC-8, HDAC-9, HDAC-10 and HDAC-11 | > 6.00
CCCc1ccc(C(C(=O)NO)c2ccccc2)cc1 (stereo not shown) | one or more of HDAC-4, HDAC-5, HDAC-6, HDAC-7, HDAC-8, HDAC-9, HDAC-10 and HDAC-11 | > 6.00
COc1ccc(-c2ccc(C(C(=O)NO)c3ccccc3)cc2)cc1 (stereo not shown) | one or more of HDAC-4, HDAC-5, HDAC-6, HDAC-7, HDAC-8, HDAC-9, HDAC-10 and HDAC-11 | > 6.00
O=C(NO)C(c1ccccc1)c1nnc(-c2ccc(Br)cc2)s1 (stereo not shown) | one or more of HDAC-4, HDAC-5, HDAC-6, HDAC-7, HDAC-8, HDAC-9, HDAC-10 and HDAC-11 | > 6.00
Nc1ccccc1NC(=O)c1ccc(C(C(=O)NO)c2ccccc2)cc1 (stereo not shown) | one or more of HDAC-4, HDAC-5, HDAC-6, HDAC-7, HDAC-8, HDAC-9, HDAC-10 and HDAC-11 | > 6.00
O=C(NO)C(c1ccccc1)N1CCC(c2ccc(F)cc2)CC1 (stereo not shown) | one or more of HDAC-4, HDAC-5, HDAC-6, HDAC-7, HDAC-8, HDAC-9, HDAC-10 and HDAC-11 | > 6.00
